Values from patent US9266835B2

- experimental.protocol: Chronic DIO Mouse, first study: plasma and brain concentrations
- Assay type: in vivo
- condition.parameters: male, brain, DIO mice, 10 mg/kg daily oral, 2 Hours Post Dose, Day 16, (Std Dev), read-out: Brain concentration
measure.name: concentration at 2 h (ng/g)
Answers are plain numbers, in ng/g.

Enquiry: Determine its reported concentration at 2 h: O=c1cc(NC2CCN(S(=O)(=O)C(F)(F)F)CC2)c2cc(C(c3ccc(Cl)cc3)c3ccc(Cl)cc3)ccc2[nH]1 [Compound #44]
Return: 244

---

- experimental.protocol: Mouse Fast PK/BBB (plasma and brain concentration)
- Assay type: in vivo
- condition.parameters: male, C57bl/6j, brain, oral, N=3 (dose given as 30 mg/kg and 20 mg/kg), read-out: BRAIN Mean Conc. ± Std. Dev
measure.name: concentration at 1 h (ng/mL)
Answers are plain numbers, in ng/mL.

| compound | measure.name | output.unit | val |
| --- | --- | --- | --- |
| O=c1cc(NC2CCN(S(=O)(=O)C(F)(F)F)CC2)c2cc(C(c3ccc(Cl)cc3)c3nccs3)ccc2[nH]1 (centres unmarked) | concentration at 1 h | ng/mL | 7.43 |

Now take the following compound into account.
Enquiry: Entry "O=c1cc(NC2CCN(S(=O)(=O)C(F)(F)F)CC2)c2cc(C(c3ccc(Cl)cc3)c3ccc(Cl)cc3)ccc2[nH]1" needs its concentration at 1 h filled in; supply it.
Return: 7.62

---

- experimental.protocol: Chronic DIO Mouse, second study: plasma and brain concentrations
- Type: in vivo
- condition.parameters: male, mouse, plasma, oral, 3 mg/kg, DIO mice, 3 mg/kg, Day 2, 2 hours post dose; read-out: Plasma concentration (Std Dev)
measure.name: concentration at 2 h (ng/mL)
Answers are plain numbers, in ng/mL.

Enquiry: Give me measured concentration at 2 h, please, for this molecule: O=c1cc(NC2CCN(S(=O)(=O)C(F)(F)F)CC2)c2cc(C(c3ccc(Cl)cc3)c3ccc(Cl)cc3)ccc2[nH]1 [Compound #44]
Return: 759

---

- experimental.protocol: Chronic DIO Mouse, second study: plasma and brain concentrations
- Type: in vivo
- condition.parameters: male, mouse, plasma, oral, 10 mg/kg, DIO mice, 10 mg/kg, Day 2, 2 hours post dose; read-out: Plasma concentration (Std Dev)
measure.name: concentration at 2 h (ng/mL)
One number for each entry, in ng/mL.

Enquiry: Give the value of concentration at 2 h reported for the following: "O=c1cc(NC2CCN(S(=O)(=O)C(F)(F)F)CC2)c2cc(C(c3ccc(Cl)cc3)c3ccc(Cl)cc3)ccc2[nH]1"
Return: 2490

---

Assign EC50 to each entry below.
- subject.of.test: Human CB1R (Cannabinoid receptor 1) (Homo sapiens (Human), UniProt P21554)
- Sequence (P21554 whole entry): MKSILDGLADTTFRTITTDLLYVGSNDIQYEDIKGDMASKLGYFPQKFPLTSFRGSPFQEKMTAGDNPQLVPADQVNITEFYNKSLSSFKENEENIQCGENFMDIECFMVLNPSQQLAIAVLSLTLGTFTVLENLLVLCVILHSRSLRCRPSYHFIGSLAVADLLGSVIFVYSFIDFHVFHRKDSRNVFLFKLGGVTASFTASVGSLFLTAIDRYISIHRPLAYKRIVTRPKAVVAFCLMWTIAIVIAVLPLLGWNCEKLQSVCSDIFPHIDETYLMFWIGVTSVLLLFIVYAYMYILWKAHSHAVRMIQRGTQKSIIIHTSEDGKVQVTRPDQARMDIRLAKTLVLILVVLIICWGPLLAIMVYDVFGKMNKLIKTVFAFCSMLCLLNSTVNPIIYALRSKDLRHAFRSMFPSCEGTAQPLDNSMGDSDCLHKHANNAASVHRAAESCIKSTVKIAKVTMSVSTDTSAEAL
- experimental.protocol: CB-1 in vitro cAMP assay (HTRF), inverse agonism
- Type: cell-based
- condition.parameters: mean where tested more than once
Answers are plain numbers, in nM.

Illustrative cases are given below, each with its answer.
| compound | val |
| --- | --- |
| Clc1ccc(C(c2ccc3nccc(/C=C/c4ccccc4)c3c2)c2cscn2)cc1 (stereo not shown) | 169 |
| O=c1cc(Cc2ccc(OC(F)(F)F)cc2)c2cc(C(c3ccc(Cl)cc3)c3nccs3)ccc2[nH]1 (stereo not shown) | 366 |
| COC(=O)Cc1ccc(Nc2cc(=O)[nH]c3ccc(C(c4ccc(Cl)cc4)c4ccc(Cl)cc4)cc23)cc1 | 27 |

Enquiry: Provide only the value of recorded EC50 for "O=c1cc(NCc2cccc(C(F)(F)F)c2)c2cc(C(c3ccc(Cl)cc3)c3ccc(Cl)cc3)ccc2[nH]1"
Return: 7

---

- experimental.protocol: Mouse Fast PK/BBB (plasma and brain concentration)
- Type: in vivo
- condition.parameters: male, C57bl/6j, brain, oral, 4 hr, N=3 (dose given as 30 mg/kg and 20 mg/kg), read-out: BRAIN Mean Conc. ± Std. Dev
Please go through the items and note down their concentration at 4 h.
One number for each entry, in ng/mL.

Sample records with concentration at 4 h:
| compound | concentration at 4 h (ng/mL) |
| --- | --- |
| O=c1cc(NC2CCN(S(=O)(=O)C(F)(F)F)CC2)c2cc(C(c3ccc(Cl)cc3)c3ccc(Cl)cc3)ccc2[nH]1 [Compound #44] | 11.8 |
| O=c1cc(NC2CCN(S(=O)(=O)C(F)(F)F)CC2)c2cc(C(c3ccc(Cl)cc3)c3nccs3)ccc2[nH]1 (stereo not drawn) [Compound #41] | 0 |

Would you kindly look at the next entry?
Enquiry: Please supply the value of reported concentration at 4 h for the item O=c1cc(Nc2ccc(C(F)(F)F)cc2)c2cc(C(c3ccc(Cl)cc3)c3ccc(Cl)cc3)ccc2[nH]1 [Compound #59]
Return: 59.7

---

- experimental.protocol: Chronic DIO Mouse, first study: plasma and brain concentrations
- Format: in vivo
- condition.parameters: male, plasma, DIO mice, 1 mg/kg daily oral, 2 Hours Post Dose, Day 16, (Std Dev), read-out: Plasma concentration
measure.name: concentration at 2 h (ng/mL)
Answers are plain numbers, in ng/mL.

Enquiry: Fill in reported concentration at 2 h for this entry: "O=c1cc(NC2CCN(S(=O)(=O)C(F)(F)F)CC2)c2cc(C(c3ccc(Cl)cc3)c3ccc(Cl)cc3)ccc2[nH]1"
Return: 31

---

Consider the following compounds; for each one, report its pEC50.
- subject.of.test: Human CB1R (Cannabinoid receptor 1) (Homo sapiens (Human), UniProt P21554)
- experimental.protocol: CB-1 in vitro cAMP assay (HTRF), inverse agonism
- condition.parameters: mean where tested more than once
Counter-ions that a name gives are not always drawn.
One number for each entry, as −log10 of the molar value.

Consider the reported pEC50 for these compounds:
| compound | pEC50 |
| --- | --- |
| O=C(O)c1ccc(C(=O)N2CCC(Nc3cc(=O)[nH]c4ccc(C(c5ccc(Cl)cc5)c5ccc(Cl)cc5)cc34)CC2)cc1 [Compound 116] | 6.36 |
| O=c1cc(NC2CCN(c3ccccc3)CC2)c2cc(C(c3ccc(Cl)cc3)c3ccc(Cl)cc3)ccc2[nH]1 [Compound 60] | 8.22 |
| O=S(=O)(N1CCC(Nc2ccnc3c(Br)cc(C(c4ccc(Cl)cc4)c4ccc(Cl)cc4)cc23)CC1)C(F)(F)F [Compound 524] | 7.92 |
| O=c1cc(NC2CCN(S(=O)(=O)C3CC3)CC2)c2cc(C(c3ccc(Cl)cc3)c3ccc(Cl)cc3)ccc2[nH]1 [Compound 67] | 7.82 |
| O=C(O)c1cccc(CN2CCC(Nc3cc(=O)[nH]c4ccc(C(c5ccc(Cl)cc5)c5ccc(Cl)cc5)cc34)CC2)c1 [Compound 129] | 6.80 |
| O=c1cc(Nc2ccc(C(F)(F)F)cc2)c2cc(C(c3ccc(Cl)cc3)c3ccc(Cl)cc3)ccc2[nH]1 [Compound #59] | 8.15 |
| O=c1cc(/C=C/c2cccc(F)c2)c2cc(C(c3ccc(Cl)cc3)c3ccsc3)ccc2[nH]1 (stereo not shown) [Compound 16] | 7.08 |
| COCCNc1cc(C(c2ccc(Cl)cc2)c2ccc(Cl)cc2)cc2c(NC3CCN(S(=O)(=O)C(F)(F)F)CC3)cc(=O)[nH]c12 [Compound 100] | 8.22 |

Okay, here is my list. What is pEC50 for each of these?
1. O=c1cc(NC2CCN(S(=O)(=O)C(F)(F)F)CC2)c2cc(C(c3ccc(Cl)cc3)N3CCN(c4ccccc4)CC3)ccc2[nH]1 (stereo not shown) [Compound 137]
2. O=c1cc(NC2CCN(c3ccccn3)CC2)c2cc(C(c3ccc(Cl)cc3)c3ccc(Cl)cc3)ccc2[nH]1 [Compound 68]
3. CC(C)(C)OC(=O)N1CC=C(c2ccnc3ccc(C(c4ccc(Cl)cc4)c4nccs4)cc23)CC1 (stereo not shown) [Compound 513]
4. NCCCCOc1cc(C(c2ccc(Cl)cc2)c2ccc(Cl)cc2)cc2c(NC3CCN(S(=O)(=O)C(F)(F)F)CC3)ccnc12 [Compound 542, trifluoroacetic acid salt]

Return:
[6.54, 8.22, 5.82, 6.84]

---

- subject.of.test: UniProt P21554
- experimental.protocol: CB-1 in vitro cAMP assay (HTRF), inverse agonism
- condition.parameters: mean where tested more than once
measure.name: pEC50
Answers are plain numbers, as −log10 of the molar value.

The following molecules have reported results that may help.
| molecule | pEC50 |
| --- | --- |
| NC(=O)CCC(=O)N1CCC(Nc2cc(=O)[nH]c3ccc(C(c4ccc(Cl)cc4)c4ccc(Cl)cc4)cc23)CC1 [Compound 112] | 6.52 |
| O=c1cc(/C=C/c2ccc(C(F)(F)F)cc2)c2cc(C(c3ccc(Cl)cc3)c3cccs3)ccc2[nH]1 (stereo not shown) [Compound 19] | 7.23 |

// switching to the query molecule
Enquiry: Respond only with pEC50 recorded for O=c1cc(CCc2cccc(Cl)c2)c2cc(C(c3ccc(Cl)cc3)c3nccs3)ccc2[nH]1 (stereo not shown) [Compound 11]
Return: 6.92
